Biological target: NLRP3 inflammasome (Homo sapiens, UniProt Q96P20)
Construct: host or cells: THP-1 human monocytic cells, treated with PMA and stimulated with gramicidin
Sequence (Q96P20 whole entry): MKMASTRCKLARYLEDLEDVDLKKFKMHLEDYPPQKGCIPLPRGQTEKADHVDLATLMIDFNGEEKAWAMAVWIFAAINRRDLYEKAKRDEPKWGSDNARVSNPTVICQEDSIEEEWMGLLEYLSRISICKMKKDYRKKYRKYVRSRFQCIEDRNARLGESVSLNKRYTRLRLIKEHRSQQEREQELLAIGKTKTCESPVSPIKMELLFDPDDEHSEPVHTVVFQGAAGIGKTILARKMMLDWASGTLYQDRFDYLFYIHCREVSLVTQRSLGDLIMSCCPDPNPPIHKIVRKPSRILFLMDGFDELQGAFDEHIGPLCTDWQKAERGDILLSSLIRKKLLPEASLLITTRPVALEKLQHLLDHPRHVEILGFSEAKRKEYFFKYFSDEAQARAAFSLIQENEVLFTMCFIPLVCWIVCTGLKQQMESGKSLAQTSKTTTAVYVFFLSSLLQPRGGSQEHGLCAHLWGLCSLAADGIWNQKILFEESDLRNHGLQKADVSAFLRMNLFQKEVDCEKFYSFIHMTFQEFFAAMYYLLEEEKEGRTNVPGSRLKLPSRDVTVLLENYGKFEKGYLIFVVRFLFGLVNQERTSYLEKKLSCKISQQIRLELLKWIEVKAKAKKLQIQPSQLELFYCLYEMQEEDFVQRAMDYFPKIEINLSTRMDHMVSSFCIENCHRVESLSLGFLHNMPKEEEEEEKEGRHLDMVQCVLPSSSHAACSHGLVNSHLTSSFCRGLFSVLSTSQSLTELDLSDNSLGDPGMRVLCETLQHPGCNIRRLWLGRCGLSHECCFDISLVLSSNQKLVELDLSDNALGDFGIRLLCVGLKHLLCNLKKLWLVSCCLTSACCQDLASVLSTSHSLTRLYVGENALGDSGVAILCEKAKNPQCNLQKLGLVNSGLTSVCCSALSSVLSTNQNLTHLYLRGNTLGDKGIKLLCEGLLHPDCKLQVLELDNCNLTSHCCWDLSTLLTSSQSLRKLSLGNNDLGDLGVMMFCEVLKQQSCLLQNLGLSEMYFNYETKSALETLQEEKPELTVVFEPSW
Assay: ASC-SPECK formation in THP-1 cells after gramicidin stimulation (NLRP3 inflammasome activation)
Assay type: cell-based
Details: PMA-treated human monocytic THP-1 cells; compound 1 h before 12.5 μg/ml gramicidin, 3-hour treatment; ASC SPECK imaging; read-out: EC50 values (nM) for Examples that inhibit NLRP3 inflammasome activation
Endpoint: EC50 (nM)

Below, 4 molecules whose answers are already recorded.
{"columns": ["Molecule", "Endpoint", "Value"],
 "data": [
  ["Cc1cc(C(F)(F)F)cc(O)c1-c1cc2ncn(C3CCCN(C)C3)c2nn1 (racemic)", "EC50", 91],
  ["CCN1CC[C@@H](O)[C@@H](n2cnc3c(C)c(-c4ccc(C(F)(F)F)cc4O)nnc32)C1", "EC50", 103],
  ["Cc1c(-c2ccc(C(F)(F)F)cc2O)nnc2c1ncn2[C@@H]1CC[C@@H]2CC[C@H]1N2C (single isomer, unassigned)", "EC50", 26],
  ["CCN1[C@H]2CC[C@@H]1[C@H](n1cnc3c(C)c(-c4ccc(C(F)(F)F)cc4O)nnc31)CC2 (single isomer, unassigned)", "EC50", 9]
]}

A. CCN1CCC[C@@H](n2ccc3cc(-c4c(C)cc(C(F)(F)F)cc4O)nnc32)C1
B. Cc1c(-c2ccc(C(F)(F)F)cc2O)nnc2c1ncn2[C@@H]1CCCN2CCC[C@@H]12 (single isomer, unassigned)
C. Cc1c(-c2ccc(C(F)(F)F)cc2O)nnc2c1ncn2C12CCCC(N)(C1)C2
Rank ascending by EC50. Give your ranking as a list of the labels in the requested order. A, C, B
(A: 19 nM, C: 47 nM, B: 87 nM)
